B1: Ribonuclease, P00648 (parent)
chain: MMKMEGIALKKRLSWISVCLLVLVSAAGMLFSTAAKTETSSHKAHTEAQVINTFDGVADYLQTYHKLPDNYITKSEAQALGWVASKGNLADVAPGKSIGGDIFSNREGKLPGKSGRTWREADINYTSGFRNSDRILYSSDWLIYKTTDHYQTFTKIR

# Variants of: B1
# Measurement Conditions: Bacillus amyloliquefaciens; pH 6.3; 25 °C; Urea; Fluorescence; MES-NaOH 450 mM; reversible: yes; structure 1BNI; whole UniProt chain shown
Entries annotated with measured denaturant midpoint (higher = more stable)
Reply numerically in M, unit not repeated.

# Variant Annotation, Measurement
rows = [
    ("Y125F", 3.8),
    ("N52A", 3.6),
    ("K109R", 4.3),
    ("L136T", 3.1),
    ("S139A", 3.1),
    ("I51A", 3.8),
]

**Query** Item K74G : provide denaturant midpoint (higher = more stable)
**Result** 4.3

**Query** Please indicate denaturant midpoint (higher = more stable) recorded for T73G
**Result** 3.8

**Query** For the variant D59A , report denaturant midpoint (higher = more stable).
**Result** 4.4

**Query** Given V92T , respond with its denaturant midpoint (higher = more stable).
**Result** 3.3

**Query** Indicate its recorded denaturant midpoint (higher = more stable); the variant in question is I51V
**Result** 4.2

**Query** Provide denaturant midpoint (higher = more stable) value for the following variant: Y71F
**Result** 4.5

**Query** Tell me measured denaturant midpoint (higher = more stable) for S138A please.
**Result** 3.5

**Query** Please report denaturant midpoint (higher = more stable) for the following variant: Y60A
**Result** 2.8

**Query** Given I123A , respond with its denaturant midpoint (higher = more stable).
**Result** 3.6

**Query** Please give measured denaturant midpoint (higher = more stable) of the following entry: L136V
**Result** 4.4

**Query** Provide only the value of recorded denaturant midpoint (higher = more stable) for D101N
**Result** 3.3

**Query** Identify the reported denaturant midpoint (higher = more stable) for the following entry. N124A
**Result** 3.7

**Query** Answer with reported denaturant midpoint (higher = more stable) of V83A
**Result** 3.9

**Query** Give the reported denaturant midpoint (higher = more stable) for this variant. D55A D59A R157A
**Result** 4.63

**Query** Provide denaturant midpoint (higher = more stable) value for the following variant: E76G
**Result** 3.6

**Query** Supply denaturant midpoint (higher = more stable) value. Item: N105A
**Result** 3.4

**Query** Item I156V : provide denaturant midpoint (higher = more stable)
**Result** 4.1

**Query** Give reported denaturant midpoint (higher = more stable) value for T146V
**Result** 3.2

**Query** // Input: Y64A . Output its denaturant midpoint (higher = more stable) only.
**Result** 3.5

**Query** Name the recorded denaturant midpoint (higher = more stable) of the variant listed here: T53A
**Result** 3.4
